// data source = patent US11117899B2

Listed molecules paired with reported clearance
Test: Pharmacokinetics in female Balb/c mice
Format: in vivo
Details: mouse, plasma, single intravenous injection / single oral administration
Give your result in mL/min/kg as a bare value.

Example results:
[
  {
    "SMI": "Cc1cc(-c2c(-c3cccc(F)c3)nc(N)n3ncnc23)cc(C(F)(F)F)n1",
    "clearance, mL/min/kg": 44.9
  },
  {
    "SMI": "Cc1cc(-c2c(-c3ccccc3)nc(N)n3nc(CO)nc23)cc(C)n1",
    "clearance, mL/min/kg": 38.7
  },
  {
    "SMI": "Cc1cc(-c2c(-c3ccc(F)cc3)nc(N)n3nc(C(F)(F)F)nc23)cc(Cl)n1",
    "clearance, mL/min/kg": 5.53
  }
]

Could you please provide reported clearance for "Cc1cc(-c2c(-c3ccc(F)cc3)nc(N)n3nc(CO)nc23)cc(C(F)(F)F)n1" ? Thanks!
7.51

###

Listed molecules paired with reported log10 of half-life
Experiment: Pharmacokinetics in female Balb/c mice
Assay type: in vivo
Settings: mouse, plasma, single intravenous injection / single oral administration, read-out: Half-life T1/2 (converted)
Log scale reminder: half-life in h, then log10 taken.

Example results:
[
  {
    "MOLECULE": "Cc1cc(-c2c(-c3ccc(F)cc3)nc(N)n3nc(CO)nc23)cc(C(F)(F)F)n1",
    "log10 of half-life": 0.30
  },
  {
    "MOLECULE": "Cc1cc(-c2c(-c3ccccc3)nc(N)n3nc(C(F)(F)F)nc23)cc(C(F)(F)F)n1",
    "log10 of half-life": 0.60
  },
  {
    "MOLECULE": "Cc1cc(-c2nnc(N)nc2-c2ccccc2)cc(C(F)(F)F)n1 [Compound A, reference compound]",
    "log10 of half-life": -0.55
  },
  {
    "MOLECULE": "Cc1cc(-c2c(-c3ccccc3)nc(N)n3ncnc23)cc(C(F)(F)F)n1",
    "log10 of half-life": -0.33
  },
  {
    "MOLECULE": "Cc1cc(-c2c(-c3ccccc3)nc(N)n3nc(CO)nc23)cc(C(F)(F)F)n1",
    "log10 of half-life": 0.08
  },
  {
    "MOLECULE": "Cc1cc(-c2c(-c3ccc(F)cc3)nc(N)n3nc(C(F)(F)F)nc23)cc(Cl)n1",
    "log10 of half-life": 0.91
  },
  {
    "MOLECULE": "Cc1cc(-c2c(-c3ccccc3)nc(N)n3ncnc23)cc(Cl)n1",
    "log10 of half-life": -0.60
  },
  {
    "MOLECULE": "Cc1cc(-c2c(-c3ccccc3)nc(N)n3ncnc23)cc(C)n1",
    "log10 of half-life": -0.48
  },
  {
    "MOLECULE": "Cc1cc(-c2c(-c3ccccc3)nc(N)n3nc(C(F)(F)F)nc23)cc(C)n1",
    "log10 of half-life": 0.30
  },
  {
    "MOLECULE": "Cc1cc(-c2c(-c3cccc(F)c3)nc(N)n3ncnc23)cc(C(F)(F)F)n1",
    "log10 of half-life": -0.10
  }
]

Could you please provide reported log10 of half-life for "Nc1nc(-c2ccc(F)cc2)c(-c2cc(Cl)nc(C(F)(F)F)c2)c2nc(CO)nn12" ? Thanks!
0.86

Could you please provide reported log10 of half-life for "Cc1cc(-c2c(-c3ccc(F)cc3)nc(N)n3nc(C(F)(F)F)nc23)cc(C)n1" ? Thanks!
0.51

Could you please provide reported log10 of half-life for "Cc1cc(-c2c(-c3ccccc3)nc(N)n3nc(CO)nc23)cc(C)n1" ? Thanks!
-0.04

Could you please provide reported log10 of half-life for "Cc1cc(-c2c(-c3ccc(F)cc3)nc(N)n3nc(C)nc23)cc(C(F)(F)F)n1" ? Thanks!
0.28
